Provenance of the data: paper PMC6792352

assay-remarks: in vitro
measurement-parameters: rat, gh3-tre-luc cells, AC50 (uM) modified / 1000
Structures can show the parent of a compound that is named as a salt.
Record form. Attribute: CC50 at 24 h. Fill in for each entry.

Example results:
{"compound": "CC(CCc1ccccc1)NCC(O)c1ccc(O)c(C(N)=O)c1 (centres unmarked) [Labetalol hydrochloride]", "CC50 at 24 h": "14.1 µM"}
{"compound": "NP(N)(=O)NC(=O)c1ccc(F)cc1 [Flurofamide]", "CC50 at 24 h": "> 50 µM"}

Fill in CC50 at 24 h for each of the 5 compounds listed.
1. C=CCOCC(CO)(CO)CO
2. NC(=O)[C@H]1O[C@@H](O)[C@H](O)[C@@H](O)[C@@H]1O [Glucuronamide]
3. CC(=O)CC(=O)Nc1ccc(S(=O)(=O)O)cc1
4. C[N+]1(CC2COC(c3ccccc3)(C3CCCCC3)O2)CCCCC1 (centres unmarked) [Oxapium iodide]
5. C=C(C)[C@@H]1CC[C@@H](C)C[C@H]1O

Result block:
1. > 60 µM
2. > 50 µM
3. > 90 µM
4. > 50 µM
5. > 90 µM

Fill in CC50 at 24 h for each of the 7 compounds listed.
1. CN1CCC[C@H]1c1cccnc1
2. COc1ccccc1N1CCN(CC(O)COc2cccc3ccccc23)CC1 (centres unmarked)
3. COc1ccc(/C=C/C(=O)Nc2ccccc2C(=O)O)cc1OC
4. CN1CC[C@H](c2c(O)cc(O)c3c(=O)cc(-c4ccccc4Cl)oc23)[C@H](O)C1 [Flavopiridol hydrochloride]
5. N#CCc1cccc(C(F)(F)F)c1 [[3-(Trifluoromethyl)phenyl]acetonitrile]
6. CCCCCCC(O)CCCCCCCCCCC(=O)OC (centres unmarked) [Methyl 12-hydroxyoctadecanoate]
7. CCCC/C=C\CCCCCCCCCC=O [(Z)-11-Hexadecenal]

Result block:
["> 90 µM", "23.4 µM", "> 50 µM", "0.302 µM", "> 90 µM", "> 90 µM", "> 90 µM"]

Fill in CC50 at 24 h for each of the 6 compounds listed.
1. COC1=C(OC)C(=O)C(CCCCCCCCCCO)=C(C)C1=O
2. CC(CNC(=O)c1cccnc1)NC(=O)c1cccnc1 (centres unmarked)
3. CC1(C)[C@H](C(=O)O[C@H](C#N)c2cccc(Oc3ccccc3)c2)[C@@H]1C=C(Cl)Cl
4. CC[C@H]1OC(=O)C[C@@H](O)[C@H](C)[C@@H](O[C@@H]2O[C@H](C)[C@@H](O[C@H]3C[C@@](C)(O)[C@@H](O)[C@H](C)O3)[C@H](N(C)C)[C@H]2O)[C@@H](CC=O)C[C@@H](C)C(=O)/C=C/C(C)=C/[C@@H]1CO[C@@H]1O[C@H](C)[C@@H](O)[C@@H](OC)[C@H]1OC [Tylosin tartrate]
5. Cn1c([N+](=O)[O-])cnc1COC(N)=O
6. NCCNCCO [N-(Hydroxyethyl)ethylenediamine]

Result block:
["35.2 µM", "> 50 µM", "> 90 µM", "> 50 µM", "> 50 µM", "> 90 µM"]
